target: human tau(pS422) (Homo sapiens, UniProt P10636, S739X); assay: BIAcore kinetic screening and kinetic rates of humanized VH/VL combinations; type: binding; details: 25 °C; VH14 or VH20 with VL variants
Quick list: t/2 diss per entry.
Just the number please, in min, no unit attached.

Prompt: Look up and state reported t/2 diss for VH14 with VL28: anti-human tau(pS422) antibody; VH SEQ ID NO: 50, VL SEQ ID NO: 39 (antibody, V domains shown, humanized sequence) VH: QQLVESGGGLVQPGGSLRLSCAASGFSLSSNAINWVRQAPGKGLEWVGYIAVSGNTYYASWAKGRFTISRDNSKNTLYLQMNSLRAEDTAVYYCGKSNIWGPGTLVTVSS VL: AIQMTQSPSTLSASVGDRVTITCRSSQSVRTNRLAWFQQKPGKAPKRLIYSASTLDFGVPSRFSGSGSGTEFTLTISSLQPDDFATYYCLGYFDPSADPVAFGGGTKVEIK
Response: 3

Prompt: Specify t/2 diss for VH14 with VL19: anti-human tau(pS422) antibody; VH SEQ ID NO: 50, VL SEQ ID NO: 38 (antibody, V domains shown, humanized sequence) VH: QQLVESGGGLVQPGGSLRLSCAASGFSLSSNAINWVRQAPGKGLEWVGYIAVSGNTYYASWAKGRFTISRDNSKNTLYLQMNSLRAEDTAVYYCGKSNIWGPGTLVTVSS VL: AQVMTQSPSSLSASVGDRVTITCRSSQSVRTNKLAWFQQKPGQPPKRLIYSASTLDFGVPSRFSGSGSGTEFTLTISSLQPEDFATYYCLGYFDCSIADCVAFGGGTKVEIK and stop.
Response: 6

Prompt: Input VH14 with VL12: anti-human tau(pS422) antibody; VH SEQ ID NO: 50, VL SEQ ID NO: 34 (antibody, V domains shown, humanized sequence) VH: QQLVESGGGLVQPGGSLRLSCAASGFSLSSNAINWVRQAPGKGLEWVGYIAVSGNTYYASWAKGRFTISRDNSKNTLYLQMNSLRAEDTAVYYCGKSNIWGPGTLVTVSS VL: DIQMTQSPSSLSASVGDRVTITCRASQGVRTNKLAWFQQKPGQPPKRLIYSASTLQSGVPSRFSGSGSGTEFTLTISSLQPEDFATYYCLGYFDCSIADCVAFGGGTKVEIK , output reported t/2 diss.
Response: 5

Prompt: Check the records and state t/2 diss for VH14 with VL39: anti-human tau(pS422) antibody; VH SEQ ID NO: 50, VL SEQ ID NO: 42 (antibody, V domains shown, humanized sequence) VH: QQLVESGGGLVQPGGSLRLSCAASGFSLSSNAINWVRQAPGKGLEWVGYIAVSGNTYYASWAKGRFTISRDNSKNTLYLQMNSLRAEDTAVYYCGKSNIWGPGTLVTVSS VL: DIQMTQSPSSLSASVGDRVTITCRSSQSVRTNRLAWFQQKPGQPPKRLIYSASTLDFGVPSRFSGSGSGTEFTLTISSLQPEDFATYYCLGYFDPSIADPVAFGGGTKVEIK
Response: 2

Prompt: Tell me measured t/2 diss for VH14 with VL21: anti-human tau(pS422) antibody; VH SEQ ID NO: 50, VL SEQ ID NO: 16 (antibody, V domains shown, humanized sequence) VH: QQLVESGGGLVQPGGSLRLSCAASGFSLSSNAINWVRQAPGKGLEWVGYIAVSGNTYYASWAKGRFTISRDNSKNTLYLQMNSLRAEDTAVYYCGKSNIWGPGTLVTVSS VL: AQVMTQSPSSLSASVGDRVTITCRSSQSVRTNKLAWFQQKPGQPPKRLIYSASTLDFGVPSRFSGSGSGTEFTLTISSLQPEDFATYYCLGYFDSSADIVAFGGGTKVEIK please.
Response: 4

Prompt: Kindly indicate its recorded t/2 diss. Item: VH14 with VL35: anti-human tau(pS422) antibody; VH SEQ ID NO: 50, VL SEQ ID NO: 41 (antibody, V domains shown, humanized sequence) VH: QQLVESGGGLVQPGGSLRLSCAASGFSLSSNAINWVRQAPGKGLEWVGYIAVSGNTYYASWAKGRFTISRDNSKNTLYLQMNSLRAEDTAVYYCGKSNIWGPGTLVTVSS VL: AIQMTQSTSSLSASVGDRVTITCRSSQSVRTNRLAWFQQKPGQPPKRLIYSASTLDFGVPSRFSGSGSGTEFTLTISSLQPEDFATYYCLGYFDSSIADIVAFGGGTKVEIK
Response: 1

Prompt: Quick one: give measured t/2 diss for VH14 with VL01: anti-human tau(pS422) antibody; VH SEQ ID NO: 50, VL SEQ ID NO: 32 (antibody, V domains shown, humanized sequence) VH: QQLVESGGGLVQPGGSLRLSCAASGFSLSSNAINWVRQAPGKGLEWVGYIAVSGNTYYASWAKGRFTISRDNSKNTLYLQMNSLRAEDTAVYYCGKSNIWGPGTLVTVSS VL: DIQMTQSTSTLSASVGDRVTITCQSSQSVRTNKLAWFQQKPGKAPKRLIYSASTLDFGVPSRFSGSGSGTEFTLTISSLQPDDFATYYCLGYFDCSIADCVAFGGGTKVEIK
Response: 3

Prompt: Give reported t/2 diss value for VH14 with VL00: anti-human tau(pS422) antibody; VH SEQ ID NO: 50, VL SEQ ID NO: 07 (antibody, listed as Oryctolagus cuniculus, V domains shown, humanized sequence) VH: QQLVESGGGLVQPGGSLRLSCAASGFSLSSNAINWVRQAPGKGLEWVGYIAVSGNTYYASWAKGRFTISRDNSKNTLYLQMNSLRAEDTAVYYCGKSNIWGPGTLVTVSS VL: AQVLTQTTSPVSAAVGSTVTISCQSSQSVRTNKLAWFQQKPGQPPKRLIYSASTLDFGVPSRFSASGSGTQFTLTISDVQCDDAATYYCLGYFDCSIADCVAFGGGTEVVVK
Response: 11

Prompt: Supply measured t/2 diss of VH14 with VL15: anti-human tau(pS422) antibody; VH SEQ ID NO: 50, VL SEQ ID NO: 35 (antibody, V domains shown, humanized sequence) VH: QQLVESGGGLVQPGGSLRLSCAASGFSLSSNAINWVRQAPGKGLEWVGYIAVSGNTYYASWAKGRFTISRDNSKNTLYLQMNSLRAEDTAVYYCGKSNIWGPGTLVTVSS VL: DIQMTQSPSSLSASVGDRVTITCRASQGVRTNKLAWFQQKPGQPPKRLIYSASTLQSGVPSRFSGSGSGTEFTLTISSLQPEDFATYYCLGYFDSSIADSVAFGGGTKVEIK in your reply.
Response: 3
